The reported measurements were obtained from paper PMC7245553.

test: Mouse pharmacokinetic profiling; assay type: in vivo, CD-1 mice; details: female, CD-1, mouse, in vivo, po
Please use T whenever AUC(0-t) is not below 30000 ng·h/mL, and F whenever it is.

The following compounds have reported results that may help.
*Q* hey, is AUC(0-t) for this one >= 30000 ng·h/mL? `O=S(=O)(CCCC(F)(F)F)Nc1ccc2[nH]nc(Cl)c2c1`
*A* F

*Q* hey, is AUC(0-t) for this one >= 30000 ng·h/mL? `CCCCCS(=O)(=O)Nc1ccc2[nH]nc(Cl)c2c1`
*A* T

*Q* hey, is AUC(0-t) for this one >= 30000 ng·h/mL? `Cc1n[nH]c2ccc(NS(=O)(=O)CCCCF)cc12`
*A* T

Continuing:
*Q* hey, is AUC(0-t) for this one >= 30000 ng·h/mL? `Cc1n[nH]c2ccc(NS(=O)(=O)CCCC(F)(F)F)cc12`
*A* F

*Q* hey, is AUC(0-t) for this one >= 30000 ng·h/mL? `CCCCCS(=O)(=O)Nc1ccc2[nH]nc(C)c2c1`
*A* F

*Q* hey, is AUC(0-t) for this one >= 30000 ng·h/mL? `CCCCS(=O)(=O)Nc1ccc2[nH]nc(Cl)c2c1`
*A* T

* * *

biological target: KasA (Mycobacterium tuberculosis)
Sequence (P9WQD9 whole entry): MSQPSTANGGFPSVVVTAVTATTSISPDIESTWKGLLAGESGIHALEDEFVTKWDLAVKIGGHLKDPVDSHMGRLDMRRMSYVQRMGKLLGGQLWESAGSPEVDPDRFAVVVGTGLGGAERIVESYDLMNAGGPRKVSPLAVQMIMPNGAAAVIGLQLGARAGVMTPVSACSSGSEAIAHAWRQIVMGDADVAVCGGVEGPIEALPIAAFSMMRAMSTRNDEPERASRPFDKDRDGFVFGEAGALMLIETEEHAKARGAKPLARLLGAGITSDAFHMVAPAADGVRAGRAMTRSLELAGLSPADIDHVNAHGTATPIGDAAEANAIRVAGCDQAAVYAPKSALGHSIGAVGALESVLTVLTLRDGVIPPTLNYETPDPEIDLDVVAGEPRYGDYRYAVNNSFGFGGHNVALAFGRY
quantity_name: Kd (µM)
Respond with the bare value in µM.

Value sought: Kd, system KasA (Mycobacterium tuberculosis), item Cc1n[nH]c2ccc(NS(=O)(=O)CCCCF)cc12 [JSF-3285] . Result: 0.0707

* * *

target: cytochrome P450 2C19 (Homo sapiens)
Sequence (P33261 whole entry): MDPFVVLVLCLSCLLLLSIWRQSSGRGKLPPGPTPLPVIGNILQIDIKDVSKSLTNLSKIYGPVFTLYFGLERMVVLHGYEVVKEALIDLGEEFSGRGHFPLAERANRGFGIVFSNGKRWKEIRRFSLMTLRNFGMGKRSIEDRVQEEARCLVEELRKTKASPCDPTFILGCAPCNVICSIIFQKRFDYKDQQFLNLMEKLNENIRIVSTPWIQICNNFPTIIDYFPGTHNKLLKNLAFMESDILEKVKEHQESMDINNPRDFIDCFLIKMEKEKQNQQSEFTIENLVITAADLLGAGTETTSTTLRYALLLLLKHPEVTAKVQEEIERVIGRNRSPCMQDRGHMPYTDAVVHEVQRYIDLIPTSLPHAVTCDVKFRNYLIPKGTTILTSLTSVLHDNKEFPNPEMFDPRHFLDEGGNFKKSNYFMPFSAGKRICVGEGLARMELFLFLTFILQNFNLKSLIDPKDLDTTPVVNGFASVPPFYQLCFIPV
quantity_name: IC50 (µM)
Respond with the bare value in µM.

Looking up `CCCCCS(=O)(=O)Nc1ccc2[nH]c(C#N)c(C)c2c1` , I see its IC50 listed as 0.542

* * *

assay: Mouse pharmacokinetic profiling; type: in vivo, CD-1 mice; settings: female, CD-1, mouse, lung and plasma, oral
quantity_name: Kp at 5 h

Looking up Cc1n[nH]c2ccc(NS(=O)(=O)CCCCF)cc12 [JSF-3285] , I see its Kp at 5 h listed as 0.75

* * *

system: CYP1A2, CYP2C9, CYP2C19, CYP2D6, CYP3A4 (one value for the profile of isoforms; except 2C19 for compound 10); assay: in vitro; assay type: in vitro ADME; conditions: human, pH 7.4
quantity_name: IC50 at 20 min

Looking up `CCCCCS(=O)(=O)Nc1ccc2[nH]c(C#N)c(C)c2c1` , I see its IC50 at 20 min listed as > 1000 nM

# context switch: different molecule, same IC50 at 20 min
Looking up `CCCCS(=O)(=O)Nc1ccc2[nH]c(C#N)c(C)c2c1` , I see its IC50 at 20 min listed as > 1000 nM

* * *

assay: physchem; format: physicochemical; details: pH 7.4, aqueous buffer, kinetic from dmso stock
Please use MET whenever solubility kinetic at 4 h is not below 400 µM, and NOT MET whenever it is.

*Q* hey, is solubility kinetic at 4 h for this one >= 400 µM? `CCCCS(=O)(=O)Nc1ccc2[nH]nc(Cl)c2c1`
*A* MET

*Q* hey, is solubility kinetic at 4 h for this one >= 400 µM? `Cc1n[nH]c2ccc(NS(=O)(=O)CCCCF)cc12`
*A* NOT MET

* * *

experiment: Dog liver microsomal stability; format: in vitro ADME; conditions: microsomes, pH 7.4
quantity_name: half-life (min)
Respond with the bare value in min.

Looking up `Cc1n[nH]c2ccc(NS(=O)(=O)CCCCF)cc12` , I see its half-life listed as 48.2
